The reported measurements were obtained from patent US12559502B2.

# target_or_test_system: human ferroportin (Homo sapiens)
# Construct: expressed in transfected cells; host or cells: CHO cells, stably transfected, doxycycline-inducible
# Sequence (Q9NP59 whole entry): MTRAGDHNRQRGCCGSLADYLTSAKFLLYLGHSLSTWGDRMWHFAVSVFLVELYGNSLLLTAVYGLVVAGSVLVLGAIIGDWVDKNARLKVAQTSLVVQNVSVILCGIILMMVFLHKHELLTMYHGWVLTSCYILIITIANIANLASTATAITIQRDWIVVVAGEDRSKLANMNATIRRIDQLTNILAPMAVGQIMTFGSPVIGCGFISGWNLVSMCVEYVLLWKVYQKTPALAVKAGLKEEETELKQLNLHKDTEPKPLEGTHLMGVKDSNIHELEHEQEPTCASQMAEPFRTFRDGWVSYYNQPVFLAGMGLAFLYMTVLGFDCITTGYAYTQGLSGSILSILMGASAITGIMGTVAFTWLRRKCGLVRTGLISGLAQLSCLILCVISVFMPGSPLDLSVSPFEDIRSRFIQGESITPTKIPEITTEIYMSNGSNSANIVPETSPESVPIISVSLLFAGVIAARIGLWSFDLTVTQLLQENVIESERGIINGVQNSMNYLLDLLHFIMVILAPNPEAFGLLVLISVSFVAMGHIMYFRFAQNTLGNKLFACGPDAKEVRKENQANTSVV
# test_name: In-vitro ferroportin internalization assay (luciferase reporter)
# Type: cell-based
# test_context: average pEC50; stably-transfected CHO cell line expressing human ferroportin tagged to a luciferase reporter; 6 h incubation with test compound; luciferase activity (Nano-Glo)
property: pEC50

Can you share its pEC50? I mean this compound: Cc1sc2nc(-c3cc(OCCO)ccn3)nc(N(C)CC(=O)NC(C)(C)C)c2c1C
7.8

Look up pEC50 for this compound: Cc1sc2nc(-c3cc(OCCN(C)C)ccn3)nc(N(C)CC(=O)NC(C)(C)C)c2c1C
7.8

Please report the recorded pEC50 for COc1ccc(NC(=O)CN(C)c2nc(-c3cc(OCCO)ccn3)nc3sc(C)c(C)c23)cn1 .
7.5

Would you kindly share the measured pEC50 for COc1ccc(NC(=O)CN(C)c2nc(-c3cc(OCCO)ccn3)nc3scc(C)c23)cn1 ?
7.7

I would be grateful if you could share the reported pEC50 for Cc1sc2nc(-c3cc(OCCN4CCOCC4)ccn3)nc(N(C)CC(=O)NC(C)(C)C)c2c1C .
8

# get_value(readout='pEC50', item= COc1ccnc(-c2nc(N(C)CC(=O)Nc3ccc(OC)nc3)c3ccsc3n2)c1 )
6.6

For the compound COc1ccc(NC(=O)CN(C)c2nc(-c3cn(C)cn3)nc3sc(C)c(C)c23)cn1 , what pEC50 is on record?
7.1

Which pEC50 is reported for this compound? Cc1ccc(NC(=O)CN(C)c2nc(-c3cc(OCCO)ccn3)nc3sc(C)c(C)c23)cn1
7.6

Name the reported pEC50 value associated with the compound COc1ccc(NC(=O)CN(C)c2nc(-c3cc(OCCO)ccn3)nc3sc(C)cc23)cn1
7.6

Which pEC50 value belongs to Cc1sc2nc(-c3cc(OCCN4CCN(C)CC4)ccn3)nc(N(C)CC(=O)NC(C)(C)C)c2c1C ?
7.8

Name the reported pEC50 value associated with the compound Cc1sc2nc(-c3cc(O[C@@H]4CCN(C)C4)ccn3)nc(N(C)CC(=O)NC(C)(C)C)c2c1C
7.6

Need pEC50, item COc1cccc(NC(=O)CN(C)c2nc(-c3cc(OCCO)ccn3)nc3sc(C)c(C)c23)c1
7.8

Return reported pEC50; argument: Cc1sc2nc(-c3cc(OCCN(C)C)ccn3)nc(N(C)CC(=O)NC3(C(F)(F)F)CC3)c2c1C
7.5

Any idea what its pEC50 is? The compound is Cc1sc2nc(-c3cc(OCCn4ccnc4)ccn3)nc(N(C)CC(=O)NC(C)(C)C)c2c1C
8

If you can, please state the reported pEC50 value of Cc1ccc(NC(=O)CN(C)c2nc(-c3cn(C)cn3)nc3sc(C)c(C)c23)cn1 .
7.1

pEC50 for Cc1sc2nc(-c3cn(C)cn3)nc(N(C)CC(=O)NC(C)(C)C)c2c1C ?
7

Report pEC50 for Cc1sc2nc(-c3cc(OCCN4C[C@@H]5C[C@H]4CO5)ccn3)nc(N(C)CC(=O)NC(C)(C)C)c2c1C please.
8.2

Please look up its pEC50: Cc1sc2nc(-c3cc(OCCO)ccn3)nc(N(C)CC(=O)Nc3cccc(F)c3)c2c1C
7.7
